- targetEntity: E. coli PNP (Escherichia coli)
- Sequence (P0ABP8 whole entry): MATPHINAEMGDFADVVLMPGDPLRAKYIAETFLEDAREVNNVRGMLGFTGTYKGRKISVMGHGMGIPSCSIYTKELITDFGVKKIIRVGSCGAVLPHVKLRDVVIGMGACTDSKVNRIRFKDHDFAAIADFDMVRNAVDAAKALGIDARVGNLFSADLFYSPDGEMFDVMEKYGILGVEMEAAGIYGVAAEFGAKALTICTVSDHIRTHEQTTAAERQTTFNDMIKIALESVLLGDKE
- testDetails: Substrate cleavage by wild-type E. coli PNP (HPLC)
- Type: biochemical
- conditions: 100 micromolar substrate, HPLC separation of base from nucleoside
propertyMeasured: rate of enzymatic cleavage by E. coli PNP

Guide cases for rate of enzymatic cleavage by E. coli PNP, answers given:
>  <compound>
Cc1ncnc2c1ncn2[C@H]1C[C@H](O)[C@@H]([C@H](C)O)O1

>  <experimentalResult>
3,600 nanomoles per milligrams per hour

$$$$
>  <compound>
Nc1nc(Cl)nc2c1ncn2[C@H]1C[C@H](O)[C@@H](CO)O1 [2-Cl-2′-deoxyadenosine (β-L), 2-Cl-2′-deoxyadenosine]

>  <experimentalResult>
<1 nanomoles per milligrams per hour

$$$$
>  <compound>
C[C@H]1O[C@@H](n2cnc3c(N)nc(F)nc32)[C@H](O)[C@@H]1O

>  <experimentalResult>
29,000 nanomoles per milligrams per hour

$$$$
>  <compound>
Cc1ncnc2c1ncn2[C@@H]1O[C@H](CO)[C@@H](O)[C@@H]1O [9-[β-D-arabinofuranosyl]-6-methylpurine]

>  <experimentalResult>
14 nanomoles per milligrams per hour

$$$$
>  <compound>
Nc1nc(F)nc2c1ncn2[C@@H]1O[C@H](CO)[C@@H](O)[C@@H]1O [9-(β-D-arabinofuranosyl)-2-fluoroadenine, reference compound]

>  <experimentalResult>
1,250 nanomoles per milligrams per hour

$$$$
>  <compound>
Nc1ncnc2c1ncn2[C@@H]1O[C@@H](CO)[C@@H](O)[C@H]1O

>  <experimentalResult>
3,700 nanomoles per milligrams per hour

$$$$
>  <compound>
Nc1ncnc2c1ncn2[C@H]1CC[C@@H](CO)O1

>  <experimentalResult>
<2 nanomoles per milligrams per hour

$$$$
>  <compound>
Nc1ncnc2c1ncn2[C@@H]1O[C@H](CO)[C@H](O)[C@H]1O

>  <experimentalResult>
<2 nanomoles per milligrams per hour

$$$$

input: Value lookup for rate of enzymatic cleavage by E. coli PNP; key = Nc1nc2ncn([C@@H]3O[C@H](CO)[C@@H](O)[C@H]3O)c2c(=S)[nH]1
output: 66 nanomoles per milligrams per hour

input: Looking for the measured rate of enzymatic cleavage by E. coli PNP of O=c1[nH]cnc2ncn([C@@H]3O[C@H](CO)[C@@H](O)[C@H]3O)c12 , can you help?
output: 5,200 nanomoles per milligrams per hour

input: I am curious: what rate of enzymatic cleavage by E. coli PNP value has been reported for Nc1ncnc2c1ncn2[C@@H]1O[C@H](CO)[C@@H](O)[C@@H]1O ?
output: 610 nanomoles per milligrams per hour

input: Data request, read-out rate of enzymatic cleavage by E. coli PNP, for CO[C@@H]1[C@H](O)[C@@H](CO)O[C@H]1n1cnc2c(N)ncnc21
output: <1 nanomoles per milligrams per hour

input: Reported rate of enzymatic cleavage by E. coli PNP for Cc1ncnc2c1ncn2[C@@H]1C[C@H](O)[C@@H](CO)O1 : what is it?
output: <1 nanomoles per milligrams per hour

input: Form field: reported rate of enzymatic cleavage by E. coli PNP of Cc1ncnc2c1ncn2[C@@H]1O[C@H](CO)[C@@H](O)[C@H]1O
output: 96,000 nanomoles per milligrams per hour

input: I'd like to know its rate of enzymatic cleavage by E. coli PNP. The compound in question is Cc1ncnc2c1ncn2[C@@H]1O[C@@H](C)[C@@H](O)[C@H]1O
output: 20 nanomoles per milligrams per hour

input: Name the reported rate of enzymatic cleavage by E. coli PNP value associated with the compound Nc1nc(Cl)nc2c1ncn2[C@H]1C[C@H](O)[C@@H](CO)O1 [2-Cl-2′-deoxyadenosine (α-L), 2-Cl-2′-deoxyadenosine]
output: <1 nanomoles per milligrams per hour

input: // lookup rate of enzymatic cleavage by E. coli PNP for NC(=O)[C@H]1O[C@@H](n2cnc3c(N)ncnc32)[C@H](O)[C@@H]1O [5′-carboxamide of adenosine]
output: <1 nanomoles per milligrams per hour

input: Name the recorded rate of enzymatic cleavage by E. coli PNP for Cc1ncnc2c1ncn2[C@@H]1O[C@@H](CI)[C@@H](O)[C@H]1O .
output: <1 nanomoles per milligrams per hour

input: Recorded rate of enzymatic cleavage by E. coli PNP of Nc1nc(Cl)nc2c1ncn2[C@H]1C[C@H](O)[C@@H](CO)O1 [2-Cl-2′-deoxyadenosine (Cl-dAdo), 2-chloro-2′-deoxyadenosine, reference compound] , please.
output: 39,000 nanomoles per milligrams per hour

input: rate of enzymatic cleavage by E. coli PNP for Cc1ncnc2ncn([C@H]3C[C@H](O)[C@H](CO)O3)c12 ?
output: <1 nanomoles per milligrams per hour

input: # query: rate of enzymatic cleavage by E. coli PNP of entry Nc1nc2c(ncn2[C@@H]2O[C@H](CO)[C@@H](O)[C@@H]2O)c(=O)[nH]1
output: 310 nanomoles per milligrams per hour

input: rate of enzymatic cleavage by E. coli PNP lookup needed for NC[C@H]1O[C@@H](n2cnc3c(N)ncnc32)[C@H](O)[C@@H]1O , thanks.
output: 540 nanomoles per milligrams per hour

input: For the compound Cc1ncnc2c1ncn2[C@@H]1O[C@H](C)[C@@H](O)[C@H]1O , what rate of enzymatic cleavage by E. coli PNP is on record?
output: 406 nanomoles per milligrams per hour

input: I would be grateful if you could share the reported rate of enzymatic cleavage by E. coli PNP for C[C@H]1O[C@@H](n2cnc3c(N)ncnc32)[C@H](O)[C@@H]1O .
output: 8,400 nanomoles per milligrams per hour

input: rate of enzymatic cleavage by E. coli PNP for Cc1ncnc2c1ncn2[C@@H]1O[C@H]([C@@H](C)O)[C@@H](O)[C@H]1O ?
output: 47 nanomoles per milligrams per hour

input: Requested read-out: rate of enzymatic cleavage by E. coli PNP. Entry: Cc1ncnc2c1ncn2[C@@H]1O[C@@H](CO)[C@@H](O)[C@H]1O
output: 320 nanomoles per milligrams per hour

input: Entry Cc1ncnc2c1ncn2[C@@H]1O[C@H](C(C)(C)O)[C@@H](O)[C@H]1O : reported rate of enzymatic cleavage by E. coli PNP = ?
output: <1 nanomoles per milligrams per hour
